target: recombinant human PARP2 protein (Homo sapiens); construct: purchased BPS 80502; test: PARP2 enzymatic inhibitory activity, histone substrate, chemiluminescent ELISA; assay type: biochemical; details: histone substrate, 500 µM NAD+ not added; read-out: PARP2 IC50
# binning rule on IC50: b0: < 300 nM; b1: ≥ 300 nM and < 900 nM; b2: ≥ 900 nM

[[record]]
compound = "CNC(=O)c1ccc(N2CCN(Cc3ccc4c(c3)[nH]c(=O)c3nc(C)oc34)CC2)c(F)n1 [Compound 102]"
target_under_test = "recombinant human PARP2 protein (Homo sapiens)"
assigned_label = "b1"

[[record]]
compound = "CNC(=O)c1ccc(N2CCN(Cc3ccc4c(c3F)NC(=O)N3C4=NCCC3C)CC2)c(F)n1 (stereo not shown) [Compound 150]"
target_under_test = "recombinant human PARP2 protein (Homo sapiens)"
assigned_label = "b2"

[[record]]
compound = "CNC(=O)c1ccc(N2CCN(C(C)c3ccc4c(c3)[nH]c(=O)c3ccnn34)CC2)c(F)n1 (stereo not shown) [Compound 12]"
target_under_test = "recombinant human PARP2 protein (Homo sapiens)"
assigned_label = "b0"

[[record]]
compound = "N#Cc1ccc(N2CCN(Cc3ccc4c(c3F)NC(=O)N3CCCN=C43)CC2)nc1 [Compound 188]"
target_under_test = "recombinant human PARP2 protein (Homo sapiens)"
assigned_label = "b1"

[[record]]
compound = "CNC(=O)c1ccc(N2CCN(Cc3ccc4c(c3F)NC(=O)N3C4=NC[C@@H]3C)CC2)c(F)n1 [Compound 137]"
target_under_test = "recombinant human PARP2 protein (Homo sapiens)"
assigned_label = "b2"

[[record]]
compound = "C[C@@H]1CN2C(=O)Nc3c(ccc(CN4CCN(c5ccc(C(=O)NC6CC6)nc5Cl)CC4)c3F)C2=N1 [Compound 201]"
target_under_test = "recombinant human PARP2 protein (Homo sapiens)"
assigned_label = "b2"

[[record]]
compound = "CNC(=O)c1ccc(N2CCN(C(C)c3ccc4c(c3F)NC(=O)N3CC5(CC5)N=C43)CC2)c(F)n1 (stereo not shown) [Compound 173]"
target_under_test = "recombinant human PARP2 protein (Homo sapiens)"
assigned_label = "b1"

[[record]]
compound = "CNC(=O)c1ccc(N2CCN(Cc3ccc4c(c3F)NC(=O)N3CC(C)CN=C43)CC2)c(F)n1 (stereo not shown) [Compound 144]"
target_under_test = "recombinant human PARP2 protein (Homo sapiens)"
assigned_label = "b2"

[[record]]
compound = "CNC(=O)c1ccc(N2CCN(C(C)c3ccc4c(c3)[nH]c(=O)c3cccn34)CC2)cn1 (stereo not shown) [Compound 6]"
target_under_test = "recombinant human PARP2 protein (Homo sapiens)"
assigned_label = "b0"

[[record]]
compound = "CNC(=O)c1ccc(OC2CCN(Cc3ccc4c(c3)[nH]c(=O)c3ccnn34)C2)cn1 (stereo not shown) [Compound 75]"
target_under_test = "recombinant human PARP2 protein (Homo sapiens)"
assigned_label = "b2"

[[record]]
compound = "CNC(=O)c1ccc(N2CCN(Cc3ccc4c(c3)[nH]c(=O)c3nc(C)sc34)CC2)c(F)n1 [Compound 103]"
target_under_test = "recombinant human PARP2 protein (Homo sapiens)"
assigned_label = "b1"

[[record]]
compound = "CNC(=O)c1ccc(N2CCN(Cc3ccc4c(c3F)NC(=O)N3CC(C)N=C43)CC2)c(F)n1 (stereo not shown) [Compound 131]"
target_under_test = "recombinant human PARP2 protein (Homo sapiens)"
assigned_label = "b2"

[[record]]
compound = "CNC(=O)c1ccc(N2CCN(Cc3ccc4c(c3F)NC(=O)N3CC[C@H](C)N=C43)CC2)c(F)n1 [Compound 142]"
target_under_test = "recombinant human PARP2 protein (Homo sapiens)"
assigned_label = "b2"

[[record]]
compound = "CNC(=O)c1ccc(N2CCN(Cc3ccc4c(c3F)NC(=O)N3C[C@@H](C)N=C43)CC2)c(Cl)n1 [Compound 154]"
target_under_test = "recombinant human PARP2 protein (Homo sapiens)"
assigned_label = "b2"

[[record]]
compound = "CNC(=O)c1ccc(N2CCN(Cc3ccc4c(c3Cl)NC(=O)N3CCN=C43)CC2)c(F)n1 [Compound 134]"
target_under_test = "recombinant human PARP2 protein (Homo sapiens)"
assigned_label = "b2"

[[record]]
compound = "CNC(=O)c1ccc(N2CCN(Cc3ccc4c(c3F)NC(=O)N3C[C@@H](C)N=C43)CC2)c(F)n1 [Compound 132]"
target_under_test = "recombinant human PARP2 protein (Homo sapiens)"
assigned_label = "b0"

[[record]]
compound = "CNC(=O)c1ccc(N2CCN(Cc3ccc4c(c3F)NC(=O)N3CC(C)(C)N=C43)CC2)c(F)n1 [Compound 136]"
target_under_test = "recombinant human PARP2 protein (Homo sapiens)"
assigned_label = "b2"

[[record]]
compound = "CNC(=O)c1ccc(N2CCN(Cc3ccc4c([nH]c(=O)c5ccnn54)c3F)CC2)c(Cl)n1 [Compound 113]"
target_under_test = "recombinant human PARP2 protein (Homo sapiens)"
assigned_label = "b2"

[[record]]
compound = "CNC(=O)c1ccc(N2CCN(C(C)c3ccc4c(c3)[nH]c(=O)c3cccn34)CC2)c(F)n1 (stereo not shown) [Compound 5]"
target_under_test = "recombinant human PARP2 protein (Homo sapiens)"
assigned_label = "b0"

[[record]]
compound = "CNC(=O)c1ccc(N2CCN(C(C)c3ccc4c(c3)[nH]c(=O)c3cnn(C)c34)CC2)c(F)n1 (stereo not shown) [Compound 15]"
target_under_test = "recombinant human PARP2 protein (Homo sapiens)"
assigned_label = "b1"

[[record]]
compound = "CNC(=O)c1ccc(N2CCN(Cc3ccc4c(c3)[nH]c(=O)c3nn(C)cc34)CC2)c(F)n1 [Compound 22]"
target_under_test = "recombinant human PARP2 protein (Homo sapiens)"
assigned_label = "b1"

[[record]]
compound = "CNC(=O)c1ccc(N2CCN(Cc3ccc4c(c3)NC(=O)N3CCN=C43)CC2)c(F)n1 [Compound 124]"
target_under_test = "recombinant human PARP2 protein (Homo sapiens)"
assigned_label = "b1"

[[record]]
compound = "CNC(=O)c1ccc(N2CCN(C(C)c3ccc4c([nH]c(=O)c5cccn54)c3F)CC2)c(F)n1 (stereo not shown) [Compound 7]"
target_under_test = "recombinant human PARP2 protein (Homo sapiens)"
assigned_label = "b0"

[[record]]
compound = "CNC(=O)c1ccc(N2CCN(C(C)c3ccc4c([nH]c(=O)c5cccn54)c3F)CC2)cn1 (stereo not shown) [Compound 8]"
target_under_test = "recombinant human PARP2 protein (Homo sapiens)"
assigned_label = "b0"

[[record]]
compound = "CNC(=O)c1ccc(N2CCN(Cc3ccc4c(c3F)NC(=O)N3C[C@H](F)CN=C43)CC2)c(F)n1 [Compound 147]"
target_under_test = "recombinant human PARP2 protein (Homo sapiens)"
assigned_label = "b0"


###

Measured pIC50 of individual entries
target: recombinant human PARP2 protein (Homo sapiens, UniProt Q9UGN5); construct: purchased BPS 80502; assay: PARP2 enzymatic inhibitory activity, histone substrate, chemiluminescent ELISA; type: biochemical; conditions: histone substrate, 500 µM NAD+ not added; read-out: PARP2 IC50
Sequence (Q9UGN5 whole entry): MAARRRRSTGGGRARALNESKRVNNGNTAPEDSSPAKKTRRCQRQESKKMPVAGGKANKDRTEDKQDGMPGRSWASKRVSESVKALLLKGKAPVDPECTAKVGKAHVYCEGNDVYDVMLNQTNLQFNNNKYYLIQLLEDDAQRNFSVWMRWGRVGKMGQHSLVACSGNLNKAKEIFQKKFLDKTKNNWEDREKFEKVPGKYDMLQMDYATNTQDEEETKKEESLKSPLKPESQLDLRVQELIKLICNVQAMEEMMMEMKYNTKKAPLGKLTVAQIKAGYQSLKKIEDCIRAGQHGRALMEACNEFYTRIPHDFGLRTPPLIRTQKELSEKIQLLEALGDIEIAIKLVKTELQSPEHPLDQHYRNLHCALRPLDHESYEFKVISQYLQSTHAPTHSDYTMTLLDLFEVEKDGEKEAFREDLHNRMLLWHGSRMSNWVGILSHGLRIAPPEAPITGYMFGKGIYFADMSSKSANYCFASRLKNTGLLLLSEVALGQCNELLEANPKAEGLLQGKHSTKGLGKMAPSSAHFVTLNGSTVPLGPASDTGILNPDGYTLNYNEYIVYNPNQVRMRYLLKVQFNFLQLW
pIC50: −log10 of the molar value.
readout_type: pIC50

[[record]]
molecule = "CCNC(=O)c1ccc(N2CCN(Cc3ccc4c(c3F)NC(=O)N3C[C@@H](C)N=C43)CC2)c(C)n1"
target_under_test = "recombinant human PARP2 protein (Homo sapiens, UniProt Q9UGN5)"
readout_type = "pIC50"
measured_result = 6.11

[[record]]
molecule = "CNC(=O)c1ccc(N2CCN(Cc3ccc4c(c3F)NC(=O)N3CC(F)(F)CN=C43)CC2)c(Cl)n1"
target_under_test = "recombinant human PARP2 protein (Homo sapiens, UniProt Q9UGN5)"
readout_type = "pIC50"
measured_result = 7.01

[[record]]
molecule = "CNC(=O)c1ccc(N2CCN(C(C)c3ccc4c([nH]c(=O)c5ccnn54)c3F)CC2)c(F)n1 (stereo not shown)"
target_under_test = "recombinant human PARP2 protein (Homo sapiens, UniProt Q9UGN5)"
readout_type = "pIC50"
measured_result = 5.50

[[record]]
molecule = "O=C(NC1CC1)c1ccc(N2CCN(Cc3ccc4c(c3F)NC(=O)N3CCCN=C43)CC2)c(F)n1"
target_under_test = "recombinant human PARP2 protein (Homo sapiens, UniProt Q9UGN5)"
readout_type = "pIC50"
measured_result = 6.26


###

tested on: MDR1; test: MDR1-MDCK II cell model of bidirectional permeability; type: in vitro ADME; conditions: dog, basolateral-to-apical, 2 µM, 2.5 h
Reported Papp B→A at 2.5 h, 2 µM is given for each of the following compounds.
readout_type: Papp B→A at 2.5 h, 2 µM (×10⁻⁶ cm/s)

[[record]]
compound = "CNC(=O)c1ccc(N2CCN(Cc3ccc4c(c3F)NC(=O)N3CCCN=C43)CC2)c(Cl)n1 [Compound 141]"
readout_type = "Papp B→A at 2.5 h, 2 µM"
measured_result = 23.1

[[record]]
compound = "CNC(=O)c1ccc(N2CCN(Cc3ccc4c(c3F)NC(=O)N3CC5(CC5)N=C43)CC2)c(F)n1 [Compound 138]"
readout_type = "Papp B→A at 2.5 h, 2 µM"
measured_result = 17

[[record]]
compound = "CNC(=O)c1ccc(N2CCN(Cc3ccc4c(c3F)NC(=O)N3C[C@@H](C)N=C43)CC2)c(F)n1 [Compound 132]"
readout_type = "Papp B→A at 2.5 h, 2 µM"
measured_result = 26.8

[[record]]
compound = "CNC(=O)c1ccc(N2CCN(Cc3ccc4c(c3F)NC(=O)N3CC5(CC5)N=C43)CC2)c(C)n1 [Compound 157]"
readout_type = "Papp B→A at 2.5 h, 2 µM"
measured_result = 21.6

[[record]]
compound = "CNC(=O)c1ccc(N2CCN(Cc3ccc4c(c3F)NC(=O)N3CC(F)(F)CN=C43)CC2)c(C)n1 [Compound 160]"
readout_type = "Papp B→A at 2.5 h, 2 µM"
measured_result = 8.78

[[record]]
compound = "CNC(=O)c1ccc(N2CCN(Cc3ccc4c(c3F)NC(=O)N3CC5(CC5)N=C43)CC2)c(Cl)n1 [Compound 158]"
readout_type = "Papp B→A at 2.5 h, 2 µM"
measured_result = 14.1

